GI50 by entry:
- METHOD: Growth inhibition of human KPL4 cells
- Type: functional

{"COMPOUND": "C=CCNC1=C2C[C@@H](C)C[C@H](OC)[C@H](O)[C@@H](C)/C=C(\\C)[C@H](OC(N)=O)[C@@H](OC)/C=C\\C=C(/C)C(=O)NC(=CC1=O)C2=O [TANESPIMYCIN]", "GI50 [µM]": 0.007}
{"COMPOUND": "COC1=C2C[C@@H](C)C[C@H](OC)[C@H](O)[C@@H](C)/C=C(\\C)[C@H](OC(N)=O)[C@@H](OC)/C=C\\C=C(/C)C(=O)NC(=CC1=O)C2=O [GELDANAMYCIN]", "GI50 [µM]": 0.059}
{"COMPOUND": "CO[C@H]1C[C@H](C)Cc2cc(O)cc(c2)NC(=O)/C=C/CC[C@H](OC)[C@@H](OC(N)=O)/C(C)=C/[C@H](C)[C@H]1O", "GI50 [µM]": 3.39}
{"COMPOUND": "COc1c2cc(cc1OC(C)=O)NC(=O)/C(C)=C/CC[C@H](OC)[C@@H](OC(N)=O)/C(C)=C/[C@H](C)[C@@H](O)[C@@H](OC)C[C@H](C)C2", "GI50 [µM]": 0.18}
{"COMPOUND": "CO[C@H]1C[C@H](C)Cc2cc(cc(O)c2O)NC(=O)/C(C)=C/CC[C@H](OC)[C@@H](OC(N)=O)/C(C)=C/[C@H](C)[C@H]1O", "GI50 [µM]": 4.33}
{"COMPOUND": "COc1c(O)cc2cc1C[C@@H](C)C[C@H](OC)[C@H](O)[C@@H](C)/C=C(\\C)[C@H](OC(N)=O)[C@@H](OC)CC/C=C(\\C)C(=O)N2 [REBLASTATIN]", "GI50 [µM]": 0.45}
{"COMPOUND": "CO[C@H]1C[C@H](C)Cc2cc(O)cc(c2)NC(=O)/C(C)=C/CC[C@H](OC)[C@@H](OC(N)=O)/C(C)=C/[C@H](C)[C@H]1O", "GI50 [µM]": 0.73}

====

- Tested on: KPL4
- METHOD: Inhibition of Hsp90 in human KPL4 cells assessed as depletion of ErbB2 level after 40 hrs
- Assay type: cell-based

{"SMILES DATA": "CO[C@H]1C[C@H](C)Cc2cc(O)cc(c2)NC(=O)/C=C/CC[C@H](OC)[C@@H](OC(N)=O)/C(C)=C/[C@H](C)[C@H]1O", "UNIT ABBREV": "µM", "MEC": 3.3}
{"SMILES DATA": "COc1c2cc(cc1OC(C)=O)NC(=O)/C(C)=C/CC[C@H](OC)[C@@H](OC(N)=O)/C(C)=C/[C@H](C)[C@@H](O)[C@@H](OC)C[C@H](C)C2", "UNIT ABBREV": "µM", "MEC": 0.33}
{"SMILES DATA": "COC1=C2C[C@@H](C)C[C@H](OC)[C@H](O)[C@@H](C)/C=C(\\C)[C@H](OC(N)=O)[C@@H](OC)/C=C\\C=C(/C)C(=O)NC(=CC1=O)C2=O", "UNIT ABBREV": "µM", "MEC": 0.11}
{"SMILES DATA": "COc1c(O)cc2cc1C[C@@H](C)C[C@H](OC)[C@H](O)[C@@H](C)/C=C(\\C)[C@H](OC(N)=O)[C@@H](OC)CC/C=C(\\C)C(=O)N2", "UNIT ABBREV": "µM", "MEC": 0.33}
{"SMILES DATA": "C=CCNC1=C2C[C@@H](C)C[C@H](OC)[C@H](O)[C@@H](C)/C=C(\\C)[C@H](OC(N)=O)[C@@H](OC)/C=C\\C=C(/C)C(=O)NC(=CC1=O)C2=O", "UNIT ABBREV": "µM", "MEC": 0.03}
{"SMILES DATA": "CO[C@H]1C[C@H](C)Cc2cc(cc(O)c2O)NC(=O)/C(C)=C/CC[C@H](OC)[C@@H](OC(N)=O)/C(C)=C/[C@H](C)[C@H]1O", "UNIT ABBREV": "µM", "MEC": 10}
{"SMILES DATA": "CO[C@H]1C[C@H](C)Cc2cc(O)cc(c2)NC(=O)/C(C)=C/CC[C@H](OC)[C@@H](OC(N)=O)/C(C)=C/[C@H](C)[C@H]1O", "UNIT ABBREV": "µM", "MEC": 1}

Where these numbers come from: ChEMBL document CHEMBL1141505
